biological target: Potassium voltage-gated channel subfamily A member 3 (Homo sapiens, UniProt P22001); test: Inhibition of Kv1.3 expressed in mouse L929 cells exposed to depolarizing step pulses from -80 mV to +40 mV by whole cell patch clamp method; type: cell-based
Sequence (P22001 whole entry): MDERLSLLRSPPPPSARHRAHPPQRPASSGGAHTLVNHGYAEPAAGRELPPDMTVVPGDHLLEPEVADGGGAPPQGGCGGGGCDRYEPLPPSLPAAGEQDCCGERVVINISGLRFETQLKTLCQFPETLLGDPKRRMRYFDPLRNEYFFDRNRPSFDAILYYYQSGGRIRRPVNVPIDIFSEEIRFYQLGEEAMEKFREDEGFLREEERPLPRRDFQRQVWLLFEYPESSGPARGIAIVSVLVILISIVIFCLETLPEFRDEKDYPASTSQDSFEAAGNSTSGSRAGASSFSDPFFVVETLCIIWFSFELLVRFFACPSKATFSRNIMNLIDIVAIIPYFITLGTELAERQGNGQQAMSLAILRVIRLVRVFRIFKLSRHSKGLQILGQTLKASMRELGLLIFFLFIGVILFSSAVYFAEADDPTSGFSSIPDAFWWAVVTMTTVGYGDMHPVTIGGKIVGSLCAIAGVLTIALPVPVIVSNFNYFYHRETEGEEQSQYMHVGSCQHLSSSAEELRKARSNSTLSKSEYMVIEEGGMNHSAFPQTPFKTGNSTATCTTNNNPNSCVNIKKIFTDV
pIC50: −log10 of the molar value.
pIC50 reference
parameterMeasured: pIC50

compound | censoringOperator | measValue
N#CC(CCN1CCC(O)(c2ccccc2)CC1)(c1ccccc1)c1ccccc1 | = | 5.77
N#CC(CCN1CCC(c2ccccc2)CC1)(c1ccccc1)c1ccccc1 | = | 5.58
N#CC(CCN1CCCCC1)(c1ccccc1)c1ccccc1 | = | 4.69
N#CC(CCN1CCN(Cc2ccccc2)CC1)(c1ccccc1)c1ccccc1 | = | 5.90
CCOC(=O)C1CCN(CCC(C#N)(c2ccccc2)c2ccccc2)CC1 | = | 3.64
N#CC(CCN1CCC(O)CC1)(c1ccccc1)c1ccccc1 | = | 6.12
N#CC(CCN1CCN(c2ccccc2)CC1)(c1ccccc1)c1ccccc1 | = | 5.73
CCOC(=O)C1(c2ccccc2)CCN(CCC(c2ccccc2)c2ccccc2)CC1 | = | 6.05
CC(C)(C)OC(=O)NC1CCN(CCC(C#N)(c2ccccc2)c2ccccc2)CC1 | = | 4.60
CC1CCN(CCC(C#N)(c2ccccc2)c2ccccc2)CC1 | = | 5.24
CCOC(=O)C1(c2ccccc2)CCN(CCC(C#N)(c2ccccc2)c2ccccc2)CC1 [DIPHENOXYLATE] | = | 5.30
OC1CCN(CCC(c2ccccc2)c2ccccc2)CC1 | = | 4.12
N#CC(CCN1CCC(N)CC1)(c1ccccc1)c1ccccc1 | < | 4.00
OC1CCN(CCCc2ccccc2)CC1 | < | 4.00
N#CC(CCN1CC=C(c2ccccc2)CC1)(c1ccccc1)c1ccccc1 | = | 5.38
CCOC(=O)C1(c2ccccc2)CCN(CCCc2ccccc2)CC1 | = | 6.10
COC1CCN(CCC(C#N)(c2ccccc2)c2ccccc2)CC1 | < | 4.00
N#CC(CCN1CCCC(O)C1)(c1ccccc1)c1ccccc1 (centres undefined) | < | 4.00
COC(=O)C1(c2ccccc2)CCN(CCC(C#N)(c2ccccc2)c2ccccc2)CC1 | = | 5.60

====

assay: Lipophilicity, logP of the compound; type: physicochemical; conditions: octanol/water

smilesEntry | logP
O=c1ccc2c(OCCCCOc3ccccc3)c3ccoc3cc2o1 | 4.03
